All figures here come from the supplement of paper PMC10307832.

- Tested on: NCI-H1651
- protocol_text: relative viability (nuclei count vs DMSO), 5 days (fraction); higher = more cells survive
- condition_info: first compound 2.53 µM
measured_parameter: relative viability
Field format: numeric only.

O=c1cc(-c2cccc3c2Sc2ccccc2S3)oc(N2CCOCC2)c1 + COc1cccc2cc(-c3nc([C@H]4CC[C@H](C(=O)O)CC4)n4ncnc(N)c34)[nH]c12 [OSI-027] (partner 0.5 µM) : 0.6
O=c1cc(-c2cccc3c2Sc2ccccc2S3)oc(N2CCOCC2)c1 + Cc1nc(Nc2ncc(C(=O)Nc3c(C)cccc3Cl)s2)cc(N2CCN(CCO)CC2)n1 [Dasatinib] (partner 0.075 µM) : 0.312
O=c1cc(-c2cccc3c2Sc2ccccc2S3)oc(N2CCOCC2)c1 + CC(C)C[C@H](NC(=O)[C@H](Cc1ccccc1)NC(=O)c1cnccn1)B(O)O [Bortezomib] (partner 0.002 µM) : 0.906
O=c1cc(-c2cccc3c2Sc2ccccc2S3)oc(N2CCOCC2)c1 + NC(=O)Nc1cc(-c2cccc(F)c2)sc1C(=O)N[C@H]1CCCNC1 [AZD7762] (partner 0.2 µM) : 0.389
COc1nc(C)cnc1NS(=O)(=O)c1cccnc1-c1ccc(-c2nnco2)cc1 [Zibotentan] + CS(=O)(=O)N1CCN(Cc2cc3nc(-c4cccc5[nH]ncc45)nc(N4CCOCC4)c3s2)CC1 [Pictilisib] (partner 1 µM) : 0.602

We now examine a further molecule.
Exercise: Please report the measured relative viability for COc1nc(C)cnc1NS(=O)(=O)c1cccnc1-c1ccc(-c2nnco2)cc1 [Zibotentan] + C[C@@H](Oc1cc(-c2cnn(C3CCNCC3)c2)cnc1N)c1c(Cl)ccc(F)c1Cl [Crizotinib] (partner 1 µM)
Solution: 0.862
